Data credit: ChEMBL document CHEMBL1128110

assay: Plasma half life was evaluated in Dog; format: ADME, organism-based, Canis lupus familiaris
parameter measured: half-life (h)
One number for each entry, in h.

**Query** Hello, please tell me recorded half-life for this one: CCO/C(O)=C1\C(COCCn2c(C)nc3ccccc32)=NC(C)=C(C(=O)NC(C)(C)C)C1c1ccccc1Cl (stereo unspecified)
**Result** 1.2

* * *

assay: Oral bioavailability in dog; format: ADME, organism-based, Canis lupus familiaris; conditions: in vivo
parameter measured: bioavailability (%)
Give bare numbers, in %.

Please give bioavailability for each item listed below.
1. CCO/C(O)=C1\C(COCCn2c(C)nc(C)c2C)=NC(C)=C(C(=O)Nc2cccc(C)n2)C1c1ccccc1Cl (centres undefined)
2. CCO/C(O)=C1\C(COCCn2c(C)nc3ccccc32)=NC(C)=C(C(=O)NC(C)(C)C)C1c1ccccc1Cl (centres undefined)
3. CCO/C(O)=C1\C(COCCn2c(C)nc3cnccc32)=NC(C)=C(C(=O)Nc2ccccn2)C1c1ccccc1Cl (centres undefined)
4. CCOC(=O)C1=C(c2ccc(-n3c(C)nc4cnccc43)cc2)NC(C)=C(C(=O)Nc2ccccn2)C1c1ccccc1Cl (stereo in doubt; 18)

**Result**
9
30
4
100

* * *

assay: Half life was evaluated in dog; format: ADME, organism-based, Canis lupus familiaris; settings: in vivo
parameter measured: half-life
Hi, when you answer, please include the unit after the number. Thanks!

**Query** Hello, please tell me recorded half-life for this one: CCO/C(O)=C1\C(COCCn2c(C)nc(C)c2C)=NC(C)=C(C(=O)Nc2cccc(C)n2)C1c1ccccc1Cl (stereo unspecified)
**Result** 4.4 h
